Molecular target: human TYK2 (JH2domain-pseudokinase) (Homo sapiens (Human))
Assay: TYK2 JH2 Domain Binding Assay (KINOMEscan)
Experimental: Binding constants for compounds of the present invention against the JH2 domain were determined by the following protocol for a KINOMEscan® assay (DiscoveRx). […] The TYK2 (JH2domain-pseudokinase) fusion protein was labeled with a chimeric double-stranded DNA tag containing the NFkB binding site (5′-[…]-3′) fused to an amplicon for qPCR readout, which was added directly to the expression extract (the final concentration of DNA-tag in the binding reaction is 0.1 nM). […]
Measurement Kind: Kd

Compound: CNc1cc(Nc2cccn(-c3cnco3)c2=O)nc2c(C(=O)N[C@H]3CC[C@H]3O)cnn12 [I-809]
Kd: 0.2 to 1 nM

Compound: CNc1cc(Nc2cccn([C@H]3CC[C@@H](OC)CC3)c2=O)nc2c(C(=O)NC3CC3)cnn12
Kd: < 0.2 nM

Req: Report Kd on human TYK2 (JH2domain-pseudokinase) (Homo sapiens (Human)) for this entry: CNc1cc(Nc2cccn(-c3cnn(C)c3)c2=O)nc2c(C(=O)NC3CC3)cnn12
Resp: < 0.2 nM

Req: Report Kd on human TYK2 (JH2domain-pseudokinase) (Homo sapiens (Human)) for this entry: CNc1cc(Nc2cccc([C@@H]3CCCOC3)n2)nc2c(C(=O)N[C@@H]3CC[C@@H]3O)cnn12 [I-605]
Resp: < 0.2 nM

Req: Report Kd on human TYK2 (JH2domain-pseudokinase) (Homo sapiens (Human)) for this entry: NC(=O)c1cnn2c(N)cc(Nc3cccc(N4CCOCC4)c3Cl)nc12
Resp: 0.2 to 1 nM

Req: Report Kd on human TYK2 (JH2domain-pseudokinase) (Homo sapiens (Human)) for this entry: CNc1cc(Nc2cc(Cl)cn(-c3ccn(C4CC4)n3)c2=O)nc2c(C(=O)NC3CC3)cnn12
Resp: < 0.2 nM

Req: Report Kd on human TYK2 (JH2domain-pseudokinase) (Homo sapiens (Human)) for this entry: CNc1cc(Nc2cccn(C3CC(F)(F)C3)c2=O)nc2c(C(=O)N[C@@H]3CC[C@@H]3O)cnn12 [I-1305]
Resp: 0.2 to 1 nM

Req: Report Kd on human TYK2 (JH2domain-pseudokinase) (Homo sapiens (Human)) for this entry: CNc1cc(Nc2cc(C)nc(N3CCCC3=O)c2)nc2c(C(N)=O)cnn12
Resp: 1 to 10 nM

---

// pKd lookup, one value per entry
target: human TYK2 (JH2domain-pseudokinase) (Homo sapiens (Human), UniProt P29597); test: TYK2 JH2 Domain Binding Assay (KINOMEscan)
Sequence (P29597 556-888): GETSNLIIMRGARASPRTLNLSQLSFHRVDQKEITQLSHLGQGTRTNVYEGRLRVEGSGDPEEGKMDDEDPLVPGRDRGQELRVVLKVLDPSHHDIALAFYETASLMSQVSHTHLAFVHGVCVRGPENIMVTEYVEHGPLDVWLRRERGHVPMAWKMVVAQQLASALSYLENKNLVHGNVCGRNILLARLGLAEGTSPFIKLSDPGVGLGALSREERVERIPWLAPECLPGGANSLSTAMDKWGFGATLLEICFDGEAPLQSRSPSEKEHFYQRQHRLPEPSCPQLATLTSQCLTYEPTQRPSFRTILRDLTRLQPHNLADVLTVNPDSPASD
pKd: −log10 of the molar value.

Some entries whose results are on file:
Compound: CNc1cc(Nc2cccn([C@H]3C[C@@H]3F)c2=O)nc2c(C(=O)N[C@@H]3CC[C@H]3O)cnn12 [I-1279]
Result: > 9.70
--
Compound: CNc1cc(Nc2cc(Cl)cn(-c3ccc(C4CC4)nn3)c2=O)nc2c(C(=O)NC3CC3)cnn12 [I-333]
Result: > 9.70

Req: Check the records and state pKd for CNc1cc(Nc2cccnc2O[C@H]2C[C@@H](OC)C2)nc2c(C(=O)NC3CC3)cnn12 [I-184]
Resp: 9.00 to 9.70

Req: Check the records and state pKd for CNc1cc(Nc2cccn(-c3ncccc3F)c2=O)nc2c(C(=O)NC[C@@H](C)CO)cnn12 [I-869]
Resp: > 9.70

Req: Check the records and state pKd for CNc1cc(Nc2cccn(-c3nn(C)c(C)c3C)c2=O)nc2c(C(=O)NC3CC3)cnn12 [I-504]
Resp: 9.00 to 9.70

Req: Check the records and state pKd for CNc1cc(Nc2cc(Cl)cn(C3CCN(C)CC3)c2=O)nc2c(C(=O)N[C@@H]3CC[C@@H]3O)cnn12 [I-1007]
Resp: 9.00 to 9.70

Req: Check the records and state pKd for CNc1cc(Nc2cccn([C@@H]3CCCC[C@@H]3O)c2=O)nc2c(C(=O)N[C@@H]3CC[C@H]3OC)cnn12 [I-1339]
Resp: 9.00 to 9.70

Req: Check the records and state pKd for CNc1cc(Nc2cccn([C@@H]3CCCOC3)c2=O)nc2c(C(=O)N[C@@H]3CC[C@@H](O)C3)cnn12 [I-739]
Resp: 9.00 to 9.70
